All values here come from PubChem BioAssay (NCI).

# Test system: DU-145 prostate
# EXPERIMENT DESCRIPTION: NCI-60 one-dose screen, 48 h
# CONDITIONS USED: 10 µM unless noted
This is part of a sample that, as a whole, favours compounds with a hit. Of some 83,000 tested, about 20% had one in any assay. Active and inactive are the calls of the source. Rule for the calls: active = growth percent below 10; inactive = the rest.
Can you answer with just one of these options? yes for active, no for inactive

The following compounds have reported results that may help.
C=C1CC[C@@H]2[C@](C)(COC(C)=O)[C@H](OC(C)=O)CC[C@@]2(C)[C@@H]1CC(Nc1ccc(S(=O)(=O)NC(C)=O)cc1)C1=CCOC1=O (some centres undefined) | yes
C#CCn1cnc2cnc(Nc3cccc(NC(=O)C=C)c3)nc21 | no
C=C(C)[C@@H]1CC[C@]2(C(=O)N3CCN(C)CC3)CC[C@]3(C)[C@H](CC[C@@H]4[C@@]5(C)CC[C@H](OC(=O)c6ccccc6C(=O)O)C(C)(C)[C@@H]5CC[C@]43C)[C@@H]12 | no
O=C(Nc1ccccc1N1CCCC1=O)c1oc2ccc(F)cc2c1-c1cnn(-c2ccccc2)c1 | no
COC(=O)c1c2c(n3ccccc13)C(=O)c1ccccc1C2=O | no

For the next question, use this compound.
Outcome logged for C=C1CC[C@@H]2C(C)(C)[C@@H](O)CC[C@@]2(C)[C@@H]1COc1ccc2ccc(=O)oc2c1 in this assay:
no

---

# Tested on: SF-268 CNS
# EXPERIMENT DESCRIPTION: NCI-60 one-dose screen, 48 h
# CONDITIONS USED: 10 µM unless noted
Compounds without any hit were thinned out: in the full panel of roughly 83,000, 20% have a hit. Activity calls are given as the source filed them. Rule for the calls: active = growth percent below 10; inactive = the rest.
Can you answer with just one of these options? 1 for active, -1 for inactive

Outcome logged for O=C1c2cccc3cccc(c23)C(=O)N1C/C=C/c1ccc2c3c(cccc13)C(=O)N(CCO)C2=O in this assay:
-1

Outcome logged for CC/C(Cc1ccccc1)=C(\c1ccc(OCCCN(C)C)cc1)c1ccc(OC(=O)NCc2ccccc2)cc1 in this assay:
-1

Outcome logged for COc1cc(C2C(C(=O)OCc3ccccc3)=C(C)NC(C)=C2C(=O)OCc2ccccc2)cc(OC)c1OC in this assay:
-1

---

# System: HOP-62 NSCLC
# EXPERIMENT DESCRIPTION: NCI-60 one-dose screen, 48 h (100 = growth as untreated, 0 = no growth, -100 = all killed)
# CONDITIONS USED: 10 µM unless noted
This is part of a sample that, as a whole, favours compounds with a hit. Of some 83,000 tested, about 20% had one in any assay. The source made the active and inactive calls. Rule for the calls: active = growth percent below 10; inactive = the rest.
EXPERIMENTAL READOUT: growth

Please supply growth for each of the following items, keeping them in order.
1. CN(C)S(=O)(=O)Oc1ccc(-c2sc3cc(OS(=O)(=O)N(C)C)ccc3c2C(=O)c2ccc(OCCN3CCCCC3)cc2)cc1
2. COc1ccc2c(c1)/C(=N/c1n[nH]c(=S)s1)C(=O)N2
3. CSC1=Nc2c(c(C)c(-c3ccccc3)n2CCCC(=O)O)C2=NC(=O)C[C@H](C)N12
4. N#Cc1cncc(-c2ccc3ncnc(Nc4cccc(Cl)c4)c3c2)c1
5. CC1(C)CC[C@]23CC[C@]4(C)[C@H](CC[C@@H]5[C@@]6(C)C/C(=C/c7ccncc7)C(=O)C(C)(C)[C@@H]6CC[C@]54C)[C@H]2[C@H]1OC3
6. C=C1C(=O)O[C@H]2[C@H]1CC/C(CNC(=O)c1c[nH]c3ccc(F)cc13)=C\CC[C@@]1(C)O[C@@H]21
7. O=C(c1c[nH]c2ccccc12)c1n[nH]c(=S)n1-c1cccc(Br)c1
8. Cc1c2cccnc2c(C)c2c1c1cc(CO)ccc1n2C

49.8% (inactive)
99.9% (inactive)
89.7% (inactive)
61.5% (inactive)
91% (inactive)
70.6% (inactive)
81.7% (inactive)
30.5% (inactive)

Measured on HOP-62 NSCLC, CC1=CC(c2ccco2)=C2C(N)=NNC2N1 (centres undefined) has a documented growth of 88.8% (inactive)
